All values here come from patent US20220040297A1.

test_target: T1, CD3ε homodimer protein (human, UniProt P07766 23-126, limits assumed)
T1 construct: Whole entry named for the human CD3 epsilon chain
T1 sequence (P07766 23-126 limits assumed): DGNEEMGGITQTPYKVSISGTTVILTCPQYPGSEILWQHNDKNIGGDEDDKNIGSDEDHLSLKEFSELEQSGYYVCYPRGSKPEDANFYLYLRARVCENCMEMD
protocol: SPR, CD3e immobilized
Attribute: KD ratio to GLS3000
Keep it simple and answer with nothing but the number.

Past entries and their recorded results:
Ask | Which measured KD ratio to GLS3000 value corresponds to GLS3000 G91S (antibody, IgG1, name in Kabat numbering, V domains shown) VH: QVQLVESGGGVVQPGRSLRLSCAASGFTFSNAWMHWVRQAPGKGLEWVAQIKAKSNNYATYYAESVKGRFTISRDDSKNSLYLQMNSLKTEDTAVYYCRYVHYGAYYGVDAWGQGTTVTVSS VL: DIVMTQSPLSLPVTPGEPASISCRSSQSLVHSNRNTYLHWYQQKPGQAPRLLIYKVSNRFSGVPDRFSGSGSGTDFTLKISRVEAEDVGVYYCGQSTQVPYTFGQGTKLEIK ?
Reply | 7210

Ask | Recorded KD ratio to GLS3000 of GLS3000 S27eL (antibody, IgG1, name in Kabat numbering, V domains shown) VH: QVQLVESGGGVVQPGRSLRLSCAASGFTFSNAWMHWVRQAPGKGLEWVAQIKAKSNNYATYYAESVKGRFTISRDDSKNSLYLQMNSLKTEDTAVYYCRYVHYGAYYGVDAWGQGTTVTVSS VL: DIVMTQSPLSLPVTPGEPASISCRSSQSLVHLNRNTYLHWYQQKPGQAPRLLIYKVSNRFSGVPDRFSGSGSGTDFTLKISRVEAEDVGVYYCGQGTQVPYTFGQGTKLEIK , please.
Reply | 1.66

Let us move to another entry and its KD ratio to GLS3000.
Ask | Give the measured KD ratio to GLS3000 of GLS3000 R45D (antibody, IgG1, name in Kabat numbering, V domains shown) VH: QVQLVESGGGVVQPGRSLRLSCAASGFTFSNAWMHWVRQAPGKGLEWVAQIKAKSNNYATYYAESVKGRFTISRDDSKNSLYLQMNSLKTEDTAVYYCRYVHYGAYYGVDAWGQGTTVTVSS VL: DIVMTQSPLSLPVTPGEPASISCRSSQSLVHSNRNTYLHWYQQKPGQAPDLLIYKVSNRFSGVPDRFSGSGSGTDFTLKISRVEAEDVGVYYCGQGTQVPYTFGQGTKLEIK .
Reply | 0.86
